Origin of measurements: paper PMC7470124

property_label: melting point

Study these solved cases before continuing.
O=C(CN1C(=O)C(=O)c2cc(S(=O)(=O)N3CCC[C@H]3COc3ccccc3)ccc21)Nc1ccc([N+](=O)[O-])cc1 [20h] = 162 to 164 °C
O=C(CN1C(=O)C(=O)c2cc(S(=O)(=O)N3CCC[C@H]3COc3ccccc3)ccc21)Nc1ccc(F)cc1 [20c] = 108 to 110 °C
O=C(CN1C(=O)C(=O)c2cc(S(=O)(=O)N3CCCC3)ccc21)Nc1ccccc1[N+](=O)[O-] [19f] = 195 to 197 °C
C#CCN1C(=O)C(=O)c2cc(S(=O)(=O)N3CCCC3)ccc21 [19a] = 203 to 205 °C
O=C(CN1C(=O)C(=O)c2cc(S(=O)(=O)N3CCC[C@H]3COc3ccccc3)ccc21)Nc1ccccc1 [20b] = 238 to 240 °C

Query: Consider the molecule O=C(CN1C(=O)C(=O)c2cc(S(=O)(=O)N3CCC[C@H]3COc3ccccc3)ccc21)Nc1ccc(Cl)cc1 [20d] and give its measured melting point.
Result: 209 to 211 °C

Query: Consider the molecule O=C(CN1C(=O)C(=O)c2cc(S(=O)(=O)N3CCCC3)ccc21)Nc1ccc(OC(F)(F)F)cc1 [19i] and give its measured melting point.
Result: 266 to 267 °C

Query: Consider the molecule O=C(CN1C(=O)C(=O)c2ccccc21)Nc1ccccc1 [11b] and give its measured melting point.
Result: 174 to 176 °C

Query: Consider the molecule O=C(CN1C(=O)C(=O)c2ccccc21)Nc1ccc([N+](=O)[O-])cc1 [11h] and give its measured melting point.
Result: 179 to 181 °C

Query: Consider the molecule O=C(CN1C(=O)C(=O)c2cc(S(=O)(=O)N3CCC[C@H]3COc3ccccc3)ccc21)Nc1cccc([N+](=O)[O-])c1 [20g] and give its measured melting point.
Result: 181 to 183 °C

Query: Consider the molecule C#CCN1C(=O)C(=O)c2cc(S(=O)(=O)N3CCC[C@H]3COc3ccccc3)ccc21 [20a] and give its measured melting point.
Result: 282 to 284 °C

---

- measured_target: caspase-3 (Homo sapiens)
- Sequence (P42574 29-175 limits assumed): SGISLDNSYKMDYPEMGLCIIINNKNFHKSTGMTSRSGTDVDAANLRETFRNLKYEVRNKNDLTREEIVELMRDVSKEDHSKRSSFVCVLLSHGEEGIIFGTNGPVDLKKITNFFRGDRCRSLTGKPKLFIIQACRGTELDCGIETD
- Sequence (P42574 176-277 limits assumed): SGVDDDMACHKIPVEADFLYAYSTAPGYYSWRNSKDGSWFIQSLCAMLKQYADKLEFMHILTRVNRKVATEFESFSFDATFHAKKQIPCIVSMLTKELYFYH
property_label: IC50 (µM)
// note: answer is a bare numeric in µM

Query: Consider the compound O=C(CN1C(=O)C(=O)c2cc(S(=O)(=O)N3CCC[C@H]3COc3ccccc3)ccc21)Nc1ccc(Cl)cc1 [20d] and give its measured IC50.
Result: 2.33

---

Below is a list of entries, each paired with its recorded melting point value.

O=C(CN1C(=O)C(=O)c2cc(S(=O)(=O)N3CCC[C@H]3COc3ccccc3)ccc21)Nc1ccccc1[N+](=O)[O-] [20f] = 180 to 182 °C
Cc1ccc(NC(=O)CN2C(=O)C(=O)c3cc(S(=O)(=O)N4CCC[C@H]4COc4ccccc4)ccc32)cc1 [20j] = 209 to 211 °C
O=C(CN1C(=O)C(=O)c2cc(S(=O)(=O)N3CCCC3)ccc21)Nc1ccc(F)cc1 [19c] = 191 to 193 °C
O=C(CN1C(=O)C(=O)c2ccccc21)Nc1cccc([N+](=O)[O-])c1 [11g] = 191 to 192 °C
COc1ccc(NC(=O)CN2C(=O)C(=O)c3cc(S(=O)(=O)N4CCC[C@H]4COc4ccccc4)ccc32)cc1 [20k] = 204 to 206 °C

API: the following record is the query input.
Query: Consider the compound Cc1ccc(NC(=O)CN2C(=O)C(=O)c3ccccc32)cc1 [11j] and give its measured melting point.
Result: 196 to 198 °C
